Test system: A2780, A549, HepG2, MDA-MB-453
Assay: MTT assay, panel of four human cancer cell lines taken together
Format: cell-based
Settings: all four cell lines, 30 μM = arbitrary limit of pharmacological relevance
Method: After 6–8 h cells were treated with 20 μL containing five 1:10 fold concentrations of our compounds diluted in FCS containing 3% DMSO. As normal non-cancer cell targets we used peripheral blood lymphocytes obtained from three healthy volunteers, isolated by gradient centrifugation (Lympholyte-H Cell Separation Media, EuroClone, Pero, MI, Italy) and stimulated with 1% phytohemagglutinin and 100 U/ml recombinant IL-2. One week after stimulation cells were ready for use at 15,000/well. […]
Readout label: IC50

{"columns": ["Compound", "IC50"],
 "data": [
  ["Cc1c(C(=O)C2C(c3ccccn3)C3CSCN3C23C(=O)Nc2ccccc23)cnn1-c1ccccc1 (centres unmarked) [8l]", "≥ 30 µM"]
]}

compound Cc1c(C(=O)C2C(c3ccco3)C3CSCN3C23C(=O)Nc2ccccc23)cnn1-c1ccccc1 (centres unmarked) [8b] , IC50 observed: ≥ 30 µM

---

system: activated PBL; assay: MTT assay on normal PBL activated with PHA and recombinant IL-2; assay type: cell-based; settings: Homo sapiens, PBL A, mean ± SD of 4–6 IC50 values
Readout label: IC50 (µM)
One number for each entry, in µM.

Reference set (3 entries):
{"columns": ["Compound", "IC50, µM"],
 "data": [
  ["Cc1c(C(=O)C2C(c3cccc(F)c3)C3CSCN3C23C(=O)Nc2ccccc23)cnn1-c1ccccc1 (stereo not shown)", 54],
  ["Cc1c(C(=O)C2C(c3ccc(C(F)(F)F)cc3)C3CSCN3C23C(=O)Nc2ccccc23)cnn1-c1ccccc1 (stereo not shown)", 49.8],
  ["Cc1c(C(=O)C2C(c3cccc(Br)c3)C3CSCN3C23C(=O)Nc2ccccc23)cnn1-c1ccccc1 (stereo not shown)", 48.8]
]}

Now look at this one.
// assay activated PBL, entry Cc1c(C(=O)C2C(c3ccc(Cl)cc3Cl)C3CSCN3C23C(=O)Nc2ccccc23)cnn1-c1ccccc1 (stereo not shown) , IC50 value = 53.6

meta.source: paper PMC10167355
